Target: Glucose-dependent insulinotropic receptor (Mus musculus)
Sequence (whole entry): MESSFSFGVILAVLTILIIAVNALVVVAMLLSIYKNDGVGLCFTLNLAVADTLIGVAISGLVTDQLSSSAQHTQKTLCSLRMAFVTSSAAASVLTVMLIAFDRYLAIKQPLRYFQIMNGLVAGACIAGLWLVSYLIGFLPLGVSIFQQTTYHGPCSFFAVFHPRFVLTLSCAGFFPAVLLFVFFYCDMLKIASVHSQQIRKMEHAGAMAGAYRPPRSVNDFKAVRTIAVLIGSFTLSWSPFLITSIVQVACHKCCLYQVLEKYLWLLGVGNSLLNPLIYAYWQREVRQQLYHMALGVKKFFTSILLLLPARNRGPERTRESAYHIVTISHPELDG
Assay: Agonist activity at GPR119 in mouse GLUTag cells assessed as stimulation of GLP1 secretion by CRE-luciferase reporter gene assay relative to AR231453
Format: functional, cell-based
Label rule, in plain words: Efficacy of 60% and up is 1 (yes), under 60% is 0 (no).

I'd appreciate it if you could say whether COCCN(C)C(=O)C(C)(Cc1ccccc1)c1ccnc2c(-c3ccc(C(F)(F)F)cc3)cnn12 (racemic) has Efficacy at least equal to 60%.
0 (no)

Now give it for CCOC(=O)[C@](C)(Cc1ccccc1)c1cnnc2c(-c3ccc(C(F)(F)F)cc3)cnn12 too.
0 (no)

Others:
Assess whether reported Efficacy for CCOC(=O)C(Cc1c(F)cccc1Cl)c1ccnc2c(-c3ccc(Cl)cc3)cnn12 (racemic) sits at 60% or higher.
0 (no)

Now the same for CCOC(=O)[C@](C)(Cc1ccccc1)c1ccnc2c(-c3ccc(C(F)(F)F)cc3)cnn12
1 (yes)

Next record, please: CCOC(=O)[C@](C)(Cc1ccccc1)c1ccnc2c(-c3ccc(Cl)cc3)cnn12
1 (yes)
